run parameters: in ethyl formate, 288.15 K
test readout: solubility (mole fraction)
The answer should be written as a number, with no unit following it.

-- ask Please report solubility (mole fraction) for the following compound: "CCC[C@@H]1CC(=O)N([C@@H](CC)C(N)=O)C1"
-- reply 0.142

----------
run parameters: in n-hexane, 283.15 K
test readout: solubility (mole fraction)
The answer should be written as a number, with no unit following it.

-- ask Please report solubility (mole fraction) for the following compound: "CCC[C@@H]1CC(=O)N([C@@H](CC)C(N)=O)C1"
-- reply 6.64e-05

----------
run parameters: in n-propanol, 308.15 K
test readout: solubility (mole fraction)
The answer should be written as a number, with no unit following it.

-- ask Please report solubility (mole fraction) for the following molecule: "CCC[C@@H]1CC(=O)N([C@@H](CC)C(N)=O)C1"
-- reply 0.365
